testedSystem: HDAC6 (Homo sapiens)
Construct: purchased Reaction Biology Corporation (assay run by the CRO)
Sequence (Q9UBN7 whole entry): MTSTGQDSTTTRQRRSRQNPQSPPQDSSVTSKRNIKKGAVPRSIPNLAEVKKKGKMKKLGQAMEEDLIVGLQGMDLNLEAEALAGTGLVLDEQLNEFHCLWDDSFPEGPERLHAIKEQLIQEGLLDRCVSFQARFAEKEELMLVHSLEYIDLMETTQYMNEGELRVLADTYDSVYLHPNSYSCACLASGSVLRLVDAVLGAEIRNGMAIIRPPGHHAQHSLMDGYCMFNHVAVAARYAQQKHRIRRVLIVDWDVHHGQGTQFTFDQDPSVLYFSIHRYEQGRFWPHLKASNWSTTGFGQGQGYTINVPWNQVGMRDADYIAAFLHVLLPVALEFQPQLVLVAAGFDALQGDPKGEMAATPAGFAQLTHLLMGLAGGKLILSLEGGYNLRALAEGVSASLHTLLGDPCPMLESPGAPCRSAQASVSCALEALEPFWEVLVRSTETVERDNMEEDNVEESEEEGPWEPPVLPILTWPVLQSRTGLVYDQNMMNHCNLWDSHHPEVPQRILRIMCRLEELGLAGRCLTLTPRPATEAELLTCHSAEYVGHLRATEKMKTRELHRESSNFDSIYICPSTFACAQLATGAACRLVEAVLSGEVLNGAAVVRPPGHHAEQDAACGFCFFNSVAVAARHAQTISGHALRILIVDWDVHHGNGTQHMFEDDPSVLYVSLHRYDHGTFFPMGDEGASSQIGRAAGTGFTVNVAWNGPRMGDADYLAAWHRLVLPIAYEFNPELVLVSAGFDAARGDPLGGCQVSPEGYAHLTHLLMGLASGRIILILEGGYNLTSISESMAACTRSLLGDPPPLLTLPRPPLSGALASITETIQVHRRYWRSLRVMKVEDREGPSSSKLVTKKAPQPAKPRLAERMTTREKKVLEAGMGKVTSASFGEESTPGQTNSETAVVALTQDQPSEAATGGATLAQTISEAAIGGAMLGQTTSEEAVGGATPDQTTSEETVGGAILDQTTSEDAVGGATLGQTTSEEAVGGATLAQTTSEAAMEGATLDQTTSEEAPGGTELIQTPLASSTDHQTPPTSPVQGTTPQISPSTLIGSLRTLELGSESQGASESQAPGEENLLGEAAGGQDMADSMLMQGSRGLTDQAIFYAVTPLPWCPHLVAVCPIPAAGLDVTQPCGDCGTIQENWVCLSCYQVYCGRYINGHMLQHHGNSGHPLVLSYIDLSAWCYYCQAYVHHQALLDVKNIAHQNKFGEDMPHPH
assayExplanation: HDAC6 inhibition, full IC50 measurement (Reaction Biology; fluorogenic p53 peptide RHKK(Ac)AMC)
Format: biochemical
experimentalContext: Conc. 5.08E-10 M, t2
Peptide text beside a SMILES is read from it.
A collection of molecules and their measured HDAC6 activity raw data (signal)
Keep it simple and answer with nothing but the number.

Check out these entries, answers already filled in.
N=C(N)NCCC[C@H]1NC(=O)[C@@H]2CCCN2C(=O)[C@H](CO)NC(=O)[C@@H](Cc2c[nH]cn2)NC(=O)[C@H](CCCCCS)NC(=O)[C@H](CCCCN)NC(=O)[C@H](Cc2ccc(O)cc2)NC(=O)[C@H]2CCCN2C(=O)[C@@H](CCC(N)=O)NC1=O [des3.1.0, SHA-dHis-Ser-Pro-dArg-dGln-dPro-Tyr-Lys] (HELM PEPTIDE1{K.[O=C([C@H](CCCCCS)N[*:1])[*:2]].[dH].S.P.[dR].[dQ].[dP].Y}$PEPTIDE1,PEPTIDE1,1:R1-9:R2$$$V2.0)	129043
CCCC[C@H]1NC(=O)[C@H](Cc2ccccc2)NC(=O)[C@H](CCCCCS)NC(=O)[C@@H](CCCNC(=N)N)NC(=O)[C@H](CC(=O)O)NC(=O)[C@@H](CO)NC(=O)[C@@H](C)NC(=O)[C@H](CCCCN)NC1=O [des4.3.1, SHA-Phe-dNle-Lys-dAla-dSer-Asp-dArg] (HELM PEPTIDE1{D.[dR].[O=C([C@H](CCCCCS)N[*:1])[*:2]].F.[CCCC[C@@H](N[*:1])C(=O)[*:2]].K.[dA].[dS]}$PEPTIDE1,PEPTIDE1,1:R1-8:R2$$$V2.0)	556727
NCCCC[C@@H]1NC(=O)[C@@H]2CCCN2C(=O)[C@H](CC(N)=O)NC(=O)[C@H](CCCCCS)NC(=O)CNC(=O)[C@H](Cc2c[nH]c3ccccc23)NC(=O)[C@@H](CCCCN)NC(=O)[C@H](CCC(N)=O)NC1=O [des1.1.0, SHA-Asn-Pro-Lys-Gln-dLys-Trp-Gly] (HELM PEPTIDE1{G.[O=C([C@H](CCCCCS)N[*:1])[*:2]].N.P.K.Q.[dK].W}$PEPTIDE1,PEPTIDE1,1:R1-8:R2$$$V2.0)	563120
CCCC[C@H]1NC(=O)[C@H](Cc2ccccc2)NC(=O)[C@H](CCCCCS)NC(=O)[C@@H](CCCNC(=N)N)NC(=O)[C@H](C)NC(=O)[C@@H](CO)NC(=O)[C@@H](C)NC(=O)[C@H](CCCCN)NC1=O [des4.3.1.3, SHA-Phe-dNle-Lys-dAla-dSer-Ala-dArg] (HELM PEPTIDE1{A.[dR].[O=C([C@H](CCCCCS)N[*:1])[*:2]].F.[CCCC[C@@H](N[*:1])C(=O)[*:2]].K.[dA].[dS]}$PEPTIDE1,PEPTIDE1,1:R1-8:R2$$$V2.0)	1554939

Q: # input molecule: N=C(N)NCCC[C@@H]1NC(=O)[C@H](Cc2c[nH]c3ccccc23)NC(=O)[C@H](CC(=O)O)NC(=O)[C@@H](CO)NC(=O)[C@H](Cc2c[nH]c3ccccc23)NC(=O)[C@H](CCCCCS)NC(=O)[C@H](CCC(N)=O)NC1=O [des4.1.0, SHA-Trp-dSer-Asp-Trp-Arg-Gln] (HELM PEPTIDE1{D.W.R.Q.[O=C([C@H](CCCCCS)N[*:1])[*:2]].W.[dS]}$PEPTIDE1,PEPTIDE1,1:R1-7:R2$$$V2.0) ; wanted: its HDAC6 activity raw data (signal)
A: 2401605

FYI, the data here is from paper PMC8185074.
